Taken from PubChem BioAssay.

The entries below come with measured composite z-score values attached.
# System: Noggin (protein binding on small-molecule microarray)
# assay-explanation: Noggin binders on small-molecule microarray, primary screen, biochemical, 635/667 nm fluorescence (AID 1095);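 also: score merges 667 nm feature fluorescence with signal to noise over triplicate slides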
# run-conditions: 635 nm fluorescence, higher = more signal
measured-quantity: composite z-score

compound	experimental-target	endpoint-value
C=CC[C@@]1(C(=O)N(C)C)N=C(c2ccc(OCCCO)cc2)O[C@@H]1c1ccccc1	Noggin (protein binding on small-molecule microarray)	-0.474
CN1C(=O)C2C=CC(C(O)c3ccc(-c4ccccc4)s3)N(Nc3ccccc3)C2C1=O (centres undefined)	Noggin (protein binding on small-molecule microarray)	-0.399
CC[C@H](C)C(=O)O[C@H]1CC[C@]2(C)C3=C(CCC2C1(C)C)[C@]1(C)CC[C@H]([C@H](C)CCCC(C)C)[C@@]1(C)CC3 (some centres undefined)	Noggin (protein binding on small-molecule microarray)	0.296
O=C1OCCC=C[C@H]2OC34C=CCN(c5ccc(Cl)cc5)C(=O)[C@H]3N(CCO)C(=O)[C@@H]4C12 (some centres undefined)	Noggin (protein binding on small-molecule microarray)	-0.545
COC(=O)[C@@]1(Cc2ccc(OC)cc2)[C@H]2c3cc(C(=O)N4CCCC4)n(CCc4ccc(OC)c(Br)c4)c3C[C@H]2CN1C(=O)c1ccccc1	Noggin (protein binding on small-molecule microarray)	-0.802
COCCCN1C(=O)[C@@]2(Cc3ccccc31)c1ccccc1C(=O)N(Cc1ccccc1OC)[C@H]2c1ccc(CO)cc1	Noggin (protein binding on small-molecule microarray)	-0.913
CN1C(=O)C2C(C1=O)C1C=C(c3ccc(CO)cc3)C2C(c2cccs2)N1C (centres undefined)	Noggin (protein binding on small-molecule microarray)	-0.518
CC(C)C[C@H]1NC(=O)[C@@]23C(=O)N[C@@H](Cc4ccccc4)C2[C@H](C)[C@@]2(C)O[C@H]2C3/C=C/C/C=C\CNC(=O)[C@@H]2CCCN2C1=O (some centres undefined)	Noggin (protein binding on small-molecule microarray)	0.588
[N-]=[N+]=Nc1ccccc1[C@@H]1OC(c2ccc(OCCCO)cc2)=N[C@]1(Cc1ccccc1)C(N)=O	Noggin (protein binding on small-molecule microarray)	-0.231
[N-]=[N+]=NCc1ccccc1C[C@]1(C(=O)N2CCCCC2)N=C(c2ccc(OCCCO)cc2)O[C@H]1c1ccccc1	Noggin (protein binding on small-molecule microarray)	0.0914
C[N+](C)(C)CCCCCCNC(=O)[C@H]1C[C@H]2C(=O)NCC(=O)N2[C@H]1c1cccc(OCCO)c1	Noggin (protein binding on small-molecule microarray)	1.48
CC(C)C[C@@H]1NC(=O)[C@H]2C[C@@H](C(=O)NCCCCCCNC(=O)CS)[C@@H](c3ccc(O)cc3)N2C1=O	Noggin (protein binding on small-molecule microarray)	1.14
C=CCNC(=O)[C@H]1[C@@H]2C(=O)O[C@@H](c3ccccc3)[C@@H](c3ccccc3)N2[C@@H](c2ccc(O)cc2)[C@]12C(=O)Nc1ccc(C#CC3=CCCCC3)cc12	Noggin (protein binding on small-molecule microarray)	1
CCC[C@@H]1C=C(C(=O)OCC)[C@H](c2ccccc2)N1S(=O)(=O)c1ccc(C)cc1	Noggin (protein binding on small-molecule microarray)	0.0974
